Assay: approximate acute toxicity (LD50), single administration
Settings: in vivo, po; mouse; per os; single administration of increasing doses; measured on the seventh day
experimentalEndpoint: LD50 at 168 h

Query: Write down LD50 at 168 h measured for item O=c1cc(/C=C/c2cccnc2)nc2ccn(-c3ccccc3)n12 [FCE 21542]
Response: > 400 mg/kg

Reference source for all entries: patent US4490376A
